increase in the percentage of Mitotracker positive cells vs DMSO for assorted compounds
Tested on: mouse T lymphocytes
Protocol Notes: Mitochondrial content (Mitotracker positive cells) in mouse T lymphocytes
Assay type: cell-based
Experimental Setup: 2 μM, 72 h
Parameter: increase in the percentage of Mitotracker positive cells vs DMSO (%)

1. CN1C(=O)Cc2cc(O)ccc2-c2ccc(O)cc21; 43.4
2. Cc1cc2c(cc1O)OC(C)(C)c1cc(O)c(C)cc1-2 [117A]; 30
3. O=C1OCc2cc(O)ccc2-c2ccc(O)cc21; 27.5
4. O=c1oc2cc(O)ccc2c2ccc(OC3CCOCC3)cc12; 19
